Value source: ChEMBL document CHEMBL4813920

Please go through the items and note down their CC50 at 48 h.
Assay: Cytotoxicity against African green monkey Vero cells incubated for 48 hrs by sulforhodamine B method
Type: cell-based
Settings: chlorocebus sabaeus

Please review the entries below; each comes with its answer.
- Structure: "Cc1ncc([N+](=O)[O-])n1CCOC(=O)NC1CCCCC1"
  CC50 at 48 h: "> 100 µM"
- Structure: "Cc1ncc([N+](=O)[O-])n1CCOC(=O)Nc1ccccc1"
  CC50 at 48 h: "> 100 µM"

For record `Cc1ncc([N+](=O)[O-])n1CCOC(=O)Nc1ccc([N+](=O)[O-])cc1` the listed CC50 at 48 h is > 100 µM
